These data points were gathered from the METLIN SMRT retention time set (Domingo-Almenara et al. 2019).

- PROTOCOL: gradient 5% acetonitrile 3 min, to 50% in 2 min, to 85% in 15 min, held 3 min, 100 µL/min
- ASSAY CONTEXT: column: Zorbax Extend-C18 2.1 x 50 mm; eluents: water / acetonitrile, 0.1% formic acid
ENDPOINT: RP-LC retention time (s)

Field: example entries. Status: answers known.
[
  {
    "COMPOUND": "CC(C)CNC(=O)N1CCc2nc(OCC3CC3)ccc2C1",
    "RP-LC retention time / s": 848
  },
  {
    "COMPOUND": "O=C(O)c1cccn2c(=O)c3ccc(F)cc3nc12",
    "RP-LC retention time / s": 687
  },
  {
    "COMPOUND": "CC(C)NC(=O)c1ccc2c(c1)CCN2C(=O)C(C)C",
    "RP-LC retention time / s": 733
  },
  {
    "COMPOUND": "CCn1ccc2sc(C)c(C(=O)NCCCN3CCCC3=O)c2c1=O",
    "RP-LC retention time / s": 594
  },
  {
    "COMPOUND": "O=C(c1ccc(F)cc1F)N1CCC(n2cnnc2C2CC2)CC1",
    "RP-LC retention time / s": 633
  },
  {
    "COMPOUND": "CC1Cc2ccccc2N1C(=O)Cc1csc(NC(=O)c2ccc(=O)[nH]c2)n1 (stereo not given)",
    "RP-LC retention time / s": 647
  },
  {
    "COMPOUND": "Cc1cc(NC(=O)C2CCN(C(=O)COc3ccccc3F)CC2)no1",
    "RP-LC retention time / s": 696
  },
  {
    "COMPOUND": "COCCNC(=O)C1CCN(c2nccc(C)n2)CC1",
    "RP-LC retention time / s": 561
  }
]

[A] COc1cc(OC)c(NC(=O)Cn2cc3c(n2)CCCC3)cc1Cl
[B] CC(C)c1ccc(NC(=O)c2cc3sc(Cl)cc3n2C)cc1
Query string: Returns: the label, A or B , whose recorded RP-LC retention time is the lower number. Selection: enter the item's label.
Result string: A
(A: 906 s, B: 1300 s)

----------
- PROTOCOL: gradient 5% acetonitrile 3 min, to 50% in 2 min, to 85% in 15 min, held 3 min, 100 µL/min
- ASSAY CONTEXT: column: Zorbax Extend-C18 2.1 x 50 mm; eluents: water / acetonitrile, 0.1% formic acid
ENDPOINT: RP-LC retention time (s)

Some compounds with recorded RP-LC retention time:
[
  {
    "COMPOUND": "CCn1nccc1C(=O)NCC1Cn2cccc2C(=O)N1C (stereo unspecified)",
    "OUTPUT UNIT": "s",
    "RP-LC retention time": 605
  },
  {
    "COMPOUND": "O=C(CCS(=O)(=O)c1ccccc1)NCc1ccsc1",
    "OUTPUT UNIT": "s",
    "RP-LC retention time": 671
  },
  {
    "COMPOUND": "O=C(Nc1ccccc1Br)N1CCc2nc(-c3ccccc3)ncc2C1",
    "OUTPUT UNIT": "s",
    "RP-LC retention time": 964
  },
  {
    "COMPOUND": "CCN(CC)CCCNC(=O)C(C)n1c2ccccc2c2cnn(C)c(=O)c21 (stereo unspecified)",
    "OUTPUT UNIT": "s",
    "RP-LC retention time": 559
  },
  {
    "COMPOUND": "COc1cccc(CNC(=O)Nc2cc3c(cc2Oc2ccccc2)n(C)c(=O)n3C)c1",
    "OUTPUT UNIT": "s",
    "RP-LC retention time": 840
  }
]

[I] CCN1C(=O)CCc2cc(NS(=O)(=O)c3ccc4c(c3)OCCO4)ccc21
[II] O=C(Nc1ccccc1Cl)c1cc(C2CC2)n2nccc2n1
Query string: In terms of reported RP-LC retention time, does I or II have the smaller number? Provide the label of your selected option as the answer.
Result string: I
(I: 794 s, II: 1190 s)
